Experiment: Cytotoxicity assay (MTT)
Assay type: cell-based, human
Conditions: human, HEK293T (HEK293) cells, 0.10-100 µM, read-out: CC50 ± SD HEK293
Procedure: HEK293T (human embryonic kidney) cells were cultured in 75 cm^2 vented tissue culture flasks (Greiner Bio-One, Frickenhausen, Germany) at 37 °C in a humidified atmosphere containing 5% CO2 in Dulbecco’s modified […] (Gibco) supplemented with 10% (v/v) fetal bovine serum (Gibco), 100 U/mL penicillin, and 100 μg/mL streptomycin (Sigma). Cytotoxicity was evaluated with the 4,5-dimethylthiazol-2-yl-2,5-diphenyltetrazolium bromide (MTT) cell proliferation assay. […]
Threshold 20 µM. CC50 at 72 h below it: yes. CC50 at 72 h at it or above: no.

{"smilesEntry": "COC(=O)Cc1c(SCCCCCCCCCCC(=O)O)[nH]c2ccccc12", "group": "no"}
{"smilesEntry": "COC(=O)Cc1c(Sc2ccccc2)[nH]c2ccc(OC)cc12", "group": "yes"}
{"smilesEntry": "CCSc1[nH]c2ccccc2c1CC(=O)OC", "group": "no"}
{"smilesEntry": "COC(=O)Cc1c(Sc2ccccc2)[nH]c2ccccc12", "group": "yes"}
{"smilesEntry": "COC(=O)Cc1c(Sc2cccc(O)c2)[nH]c2ccccc12", "group": "no"}
{"smilesEntry": "COC(=O)Cc1c(Sc2ncccn2)[nH]c2ccccc12", "group": "no"}
{"smilesEntry": "COC(=O)Cc1c(SC23CC4CC(CC(C4)C2)C3)[nH]c2ccccc12", "group": "yes"}
{"smilesEntry": "COC(=O)Cc1c(SCCCCO)[nH]c2ccccc12", "group": "no"}
{"smilesEntry": "COC(=O)Cc1c(SCc2ccccc2)[nH]c2ccccc12", "group": "no"}
{"smilesEntry": "COC(=O)Cc1c(Sc2ccccc2C(=O)O)[nH]c2ccccc12", "group": "no"}
{"smilesEntry": "COC(=O)Cc1c(SC(C)(C)C)[nH]c2ccccc12", "group": "no"}
{"smilesEntry": "CCCCCCCCCCCCSc1[nH]c2cc(Cl)ccc2c1CC(=O)OC", "group": "no"}
{"smilesEntry": "c1ccc(Cc2c(Sc3ccccc3)[nH]c3ccccc23)cc1", "group": "no"}
